Source: ChEMBL document CHEMBL3758148

- Measured On: UniProtKB P11229
- Sequence (P11229 whole entry): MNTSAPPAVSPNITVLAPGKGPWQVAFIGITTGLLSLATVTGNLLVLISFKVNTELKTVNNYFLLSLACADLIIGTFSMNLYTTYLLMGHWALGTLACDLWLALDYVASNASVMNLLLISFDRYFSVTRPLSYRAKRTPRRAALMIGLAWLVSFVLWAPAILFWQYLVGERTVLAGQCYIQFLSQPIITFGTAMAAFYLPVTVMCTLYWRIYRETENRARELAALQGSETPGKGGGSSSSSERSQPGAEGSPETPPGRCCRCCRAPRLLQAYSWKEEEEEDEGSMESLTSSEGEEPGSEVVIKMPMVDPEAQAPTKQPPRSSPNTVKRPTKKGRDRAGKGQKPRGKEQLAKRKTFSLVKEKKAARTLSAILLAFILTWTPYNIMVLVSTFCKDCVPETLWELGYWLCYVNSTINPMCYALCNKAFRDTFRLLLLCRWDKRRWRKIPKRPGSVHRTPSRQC
- Experimental Details: Displacement of [3H]NMS from human muscarinic M1 receptor expressed in CHO Flp-In cells after 1 hr by microbeta liquid scintillation counting-based radioligand binding assay
- Type: cell-based
Readout Label: pKb
Answers are plain numbers.

Reference set, count: 5
Quick one: pKb of O=c1cc(-c2ccccc2OCc2ccc(Br)cc2)ccn1[C@H]1CCCC[C@@H]1O (racemic) ?
4.24

Form field: reported pKb of O=c1cc(-c2ccccc2OCc2ccc(-c3ccncc3)cc2)ccn1[C@H]1CCCC[C@@H]1O (racemic)
4.95

Give its pKb value. Item: O=c1cc(-c2ccccc2OCc2ccc(-c3cnn(C4CCCC4)c3)cc2)ccn1[C@H]1CCCC[C@@H]1O (racemic)
5.45

Dear colleague, I am looking for the recorded pKb of the following compound: CCn1cc(-c2ccc(COc3ccccc3-c3ccn([C@H]4CCCC[C@@H]4O)c(=O)c3)cc2)cn1 (racemic)
4.38

Which pKb is reported for this compound? CC(C)n1cc(-c2ccc(COc3ccccc3-c3ccn([C@H]4CCCC[C@@H]4O)c(=O)c3)cc2)cn1 (racemic)
4.57

Can you give me pKb for all of these, one by one?
1. CCCn1cc(-c2ccc(COc3ccccc3-c3ccn([C@H]4CCCC[C@@H]4O)c(=O)c3)cc2)cn1 (racemic)
2. O=c1cc(-c2ccccc2OCc2ccc(-c3cn[nH]c3)cc2)ccn1[C@H]1CCCC[C@@H]1O (racemic)
3. O=c1cc(-c2ccccc2NCc2ccc(-c3cncnc3)cc2)ccn1[C@H]1CCCC[C@@H]1O (racemic)

1. 4.64
2. 4.56
3. 3.86
